Data provenance: patent US20240408169A1

Test system: OVCAR3 cells
Assay: MTT proliferation assay, OVCAR3;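 further: compound given as an 8- or 10-point series, one day after plating, with exposure covering roughly 3-4 cell doublings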
Assay type: cell-based
Settings: 5 days compound exposure, 1:3 serial dilution starting at 10 μM
*1 amine or outer side, *2 acyl side, *3 side chain or, on linkers, in order; H or OH if unused. Where a SMILES comes first, the peptide text is derived from it. Bridges are numbered along the chain shown (N, C = ends). [ ]: non-standard residue; d: D form. The star is where a group is joined. X146 = CC(C)C(=O)N1[C@@H]2CC[C@H]1C=C(c1ccc(Cl)cc1C[C@@H](C(=O)[*:2])N(C)[*:1])C2; NMePhe(2-(4-MorPh),5-Cl) = CN[C@@H](Cc1cc(Cl)ccc1-c1ccc(N2CCOCC2)cc1)C(=O)O; X70 = CN1CCC[C@@H](c2ccc(-c3ccc(Cl)cc3C[C@@H](C(=O)[*:2])N(C)[*:1])cc2)C1; X18 = CC(=O)N1CCC(=Cc2ccc(Cl)cc2C[C@@H](C(=O)[*:2])N(C)[*:1])CC1; X84 = CC(=O)N1CCC(c2ccc(Cl)cc2C[C@@H](C(=O)[*:2])N(C)[*:1])CC1; X189 = CN([C@@H](Cc1cc(Cl)ccc1-c1ccc2scnc2c1)C(=O)[*:2])[*:1]; NMehhhLys(Me) = CN([C@@H](CCCCCCCN(C)[*:3])C(=O)[*:2])[*:1]; X112 = CN([C@@H](Cc1cc(F)ccc1-c1cnn(C)c1)C(=O)[*:2])[*:1]; NMe(hhhLys) = CN([C@@H](CCCCCCCN[*:3])C(=O)[*:2])[*:1]; cBuCO(3,3-F2-1-CF3) = O=C(C1(C(F)(F)F)CC(F)(F)C1)*; Pro(trans-4-F) = O=C(O)[C@@H]1C[C@@H](F)CN1; Gly(cPr) = N[C@H](C(=O)O)C1CC1; X20 = O=C(C1(Cl)CC1)*
Response field label: string, one of True (GI50 strictly below 20 nM) or False.

[[record]]
compound = "CC(C)C[C@@H]1NC(=O)[C@@H](N(C)C(=O)[C@@H](NC(=O)[C@@H]2C[C@@H](F)CN2C(=O)C2(C(F)(F)F)CC(F)(F)C2)C2CC2)CC=CCCCCN(C)C(=O)[C@H](Cc2cc(Cl)ccc2-c2cnn(C3CC3)c2)N(C)C1=O [Example 78]"
class = "False"

[[record]]
compound = "CC(C)C[C@@H]1NC(=O)[C@@H](N(C)C(=O)[C@@H](NC(=O)[C@@H]2C[C@@H](F)CN2C(=O)C2(C(F)(F)F)CC(F)(F)C2)C2CC2)CCCCCCCNC(=O)[C@H](Cc2cc(Cl)ccc2C2=C[C@@H]3CC[C@H](C2)N3C(=O)C(C)C)N(C)C1=O [Example 312] ({cBuCO(3,3-F2-1-CF3)}-[Pro(trans-4-F)][Gly(cPr)][NMe(hhhLys)]L[X146]; lactam 3-C)"
class = "False"

[[record]]
compound = "CC(=O)N1CC=C(c2ccc(F)cc2C[C@H]2C(=O)N(C)CCCCC=CC[C@H](N(C)C(=O)[C@@H](NC(=O)[C@@H]3C[C@@H](F)CN3C(=O)C3(C(F)(F)F)CC(F)(F)C3)C3CC3)C(=O)N[C@@H](CC(C)C)C(=O)N2C)CC1 [Example 39]"
class = "False"

[[record]]
compound = "CC(C)C[C@@H]1NC(=O)[C@@H](N(C)C(=O)[C@@H](NC(=O)[C@@H]2C[C@@H](F)CN2C(=O)C2(C(F)(F)F)CC(F)(F)C2)C2CC2)CCCCCCCN(C)C(=O)[C@H](Cc2cc(Cl)ccc2-c2ccc3scnc3c2)N(C)C1=O [Example 169] ({cBuCO(3,3-F2-1-CF3)}-[Pro(trans-4-F)][Gly(cPr)][NMehhhLys(Me)]L[X189]; lactam 3-C)"
class = "False"

[[record]]
compound = "CC(C)C[C@@H]1NC(=O)[C@@H](N(C)C(=O)[C@@H](NC(=O)[C@@H]2C[C@@H](F)CN2C(=O)C2(Cl)CC2)C2CC2)CCCCCCCN(C)C(=O)[C@H](Cc2cc(Cl)ccc2-c2ccc(N3CCOCC3)cc2)N(C)C1=O [Example 398] (X20-[Pro(trans-4-F)][Gly(cPr)][NMehhhLys(Me)]L[NMePhe(2-(4-MorPh),5-Cl)]; lactam 3-C)"
class = "False"

[[record]]
compound = "CC(C)C[C@@H]1NC(=O)[C@@H](N(C)C(=O)[C@@H](NC(=O)[C@@H]2C[C@@H](F)CN2C(=O)C2(C(F)(F)F)CCC2)C2CC2)C/C=C\\CCCCN(C)C(=O)[C@H](Cc2cc(Cl)ccc2-c2cnn(C)c2)N(C)C1=O [Example 173]"
class = "True"

[[record]]
compound = "CC(C)C[C@@H]1NC(=O)[C@@H](N(C)C(=O)[C@@H](NC(=O)[C@@H]2C[C@@H](F)CN2C(=O)C2(C(F)(F)F)CC(F)(F)C2)C2CC2)CCCCCCCN(C)C(=O)[C@H](Cc2cc(Cl)ccc2-c2ccc([C@@H]3CCCN(C)C3)cc2)N(C)C1=O [Example 411] ({cBuCO(3,3-F2-1-CF3)}-[Pro(trans-4-F)][Gly(cPr)][NMehhhLys(Me)]L[X70]; lactam 3-C)"
class = "True"

[[record]]
compound = "CC(C)C[C@@H]1NC(=O)[C@@H](N(C)C(=O)[C@@H](NC(=O)[C@@H]2C[C@@H](F)CN2C(=O)C2(C(F)(F)F)CC(F)(F)C2)C2CC2)CCCCCCCNC(=O)[C@H](Cc2cc(F)ccc2-c2cnn(C)c2)N(C)C1=O [Example 215] ({cBuCO(3,3-F2-1-CF3)}-[Pro(trans-4-F)][Gly(cPr)][NMe(hhhLys)]L[X112]; lactam 3-C)"
class = "True"

[[record]]
compound = "CC(=O)N1CCC(c2ccc(Cl)cc2C[C@H]2C(=O)N(C)CCCCCCC[C@H](N(C)C(=O)[C@@H](NC(=O)[C@@H]3C[C@@H](F)CN3C(=O)C3(C(F)(F)F)CC(F)(F)C3)C3CC3)C(=O)N[C@@H](CC(C)C)C(=O)N2C)CC1 [Example 52] ({cBuCO(3,3-F2-1-CF3)}-[Pro(trans-4-F)][Gly(cPr)][NMehhhLys(Me)]L[X84]; lactam 3-C)"
class = "True"

[[record]]
compound = "CC(=O)N1CCC(=Cc2ccc(Cl)cc2C[C@H]2C(=O)N(C)CCCCCCC[C@H](N(C)C(=O)[C@@H](NC(=O)[C@@H]3C[C@@H](F)CN3C(=O)C3(C(F)(F)F)CC(F)(F)C3)C3CC3)C(=O)N[C@@H](CC(C)C)C(=O)N2C)CC1 [Example 289] ({cBuCO(3,3-F2-1-CF3)}-[Pro(trans-4-F)][Gly(cPr)][NMehhhLys(Me)]L[X18]; lactam 3-C)"
class = "True"

[[record]]
compound = "CC(C)C[C@@H]1NC(=O)[C@@H](N(C)C(=O)[C@@H](NC(=O)[C@@H]2C[C@@H](F)CN2C(=O)C2(C(F)(F)F)CCC2)C2CC2)CC=CCCCCN(C)C(=O)[C@H](Cc2cc(Cl)cnc2OC2CC2)N(C)C1=O [Example 106]"
class = "False"

